system: MDA-MB-435
Give one outcome, nothing more. List: class 1 = active, class 0 = inactive

Illustrative cases are given below, each with its answer.
CC(=O)OCC1OC(OC2C(COC(C)=O)OC(OCCC[S-])C(OC(C)=O)C2OC(C)=O)C(OC(C)=O)C(OC(C)=O)C1OC(C)=O.[Au+].c1ccc(CN2[CH-]N(Cc3ccccc3)C(c3ccccc3)=C2c2ccccc2)cc1 (centres undefined); class 0
Cc1ccc(Cl)cc1Nc1nc(C(F)(F)F)ccc1C(=O)Nc1cccc(C(F)(F)F)c1; class 0
S=c1nc(-c2ccccc2)oc(=NC2CCCCC2)n1C1CCCCC1; class 0

Lookup: // outcome(item) with item = COc1ccc(C(=O)c2cc(OC)c(OC)c(OC)c2)cc1OC(C)=O
Found: class 1
